Assay: Solubility at pH 6.8
Assay type: physicochemical
Conditions: pH 6.8, aqueous buffer, thermodynamic from solid; read-out: solubility
Text: The physicochemical properties of relevance for the absorption of the compound, such as the solubility and the membrane permeability, especially at a pH close to neutral pH can be measured using the procedure as described by L. ZHOU et al. in JOURNAL OF PHARMACEUTICAL SCIENCES, VOL. 96, NO. 11, p. 3052-3071 (2007) for the solubility at pH 6.8 and the procedure as described by F. Wohnsland and B. Faller in Journal of Medicinal Chemistry Vol 44, p. […]
property-label: solubility

COCc1ncc(-c2ccc3ncc4c(c3c2)n(-c2cn(C)nc2C)c(=O)n4C)cc1OC(C)C
> 473 µg/mL

[ask] Fill in the blank: the reported solubility of Cc1nn(C)cc1-n1c(=O)n(C)c2cnc3ccc(-c4ccc(N5CCNCC5)nc4)cc3c21 is ____.
[reply] > 455 µg/mL

[ask] Fill in the blank: the reported solubility of Cc1nn(C)c(C)c1-n1c(=O)n(C)c2cnc3ccc(-c4cnc(N)c(F)c4)cc3c21 is ____.
[reply] > 417 µg/mL

[ask] Fill in the blank: the reported solubility of CNc1ncc(-c2ccc3ncc4c(c3c2)n(-c2c(C)nn(C)c2C)c(=O)n4C)cc1F is ____.
[reply] > 431 µg/mL

---

molecular target: PI3K alpha (Homo sapiens, UniProt P42336); construct: p85(iSH2) fusion partner (see partner chain) (N); His tag (C); Tn5 (Trichoplusia ni) or TiniPro insect cells; assay: PI3K alpha kinase assay (Kinase-Glo luminescence)
Sequence (P42336 with tags, fused parts or gaps limits assumed): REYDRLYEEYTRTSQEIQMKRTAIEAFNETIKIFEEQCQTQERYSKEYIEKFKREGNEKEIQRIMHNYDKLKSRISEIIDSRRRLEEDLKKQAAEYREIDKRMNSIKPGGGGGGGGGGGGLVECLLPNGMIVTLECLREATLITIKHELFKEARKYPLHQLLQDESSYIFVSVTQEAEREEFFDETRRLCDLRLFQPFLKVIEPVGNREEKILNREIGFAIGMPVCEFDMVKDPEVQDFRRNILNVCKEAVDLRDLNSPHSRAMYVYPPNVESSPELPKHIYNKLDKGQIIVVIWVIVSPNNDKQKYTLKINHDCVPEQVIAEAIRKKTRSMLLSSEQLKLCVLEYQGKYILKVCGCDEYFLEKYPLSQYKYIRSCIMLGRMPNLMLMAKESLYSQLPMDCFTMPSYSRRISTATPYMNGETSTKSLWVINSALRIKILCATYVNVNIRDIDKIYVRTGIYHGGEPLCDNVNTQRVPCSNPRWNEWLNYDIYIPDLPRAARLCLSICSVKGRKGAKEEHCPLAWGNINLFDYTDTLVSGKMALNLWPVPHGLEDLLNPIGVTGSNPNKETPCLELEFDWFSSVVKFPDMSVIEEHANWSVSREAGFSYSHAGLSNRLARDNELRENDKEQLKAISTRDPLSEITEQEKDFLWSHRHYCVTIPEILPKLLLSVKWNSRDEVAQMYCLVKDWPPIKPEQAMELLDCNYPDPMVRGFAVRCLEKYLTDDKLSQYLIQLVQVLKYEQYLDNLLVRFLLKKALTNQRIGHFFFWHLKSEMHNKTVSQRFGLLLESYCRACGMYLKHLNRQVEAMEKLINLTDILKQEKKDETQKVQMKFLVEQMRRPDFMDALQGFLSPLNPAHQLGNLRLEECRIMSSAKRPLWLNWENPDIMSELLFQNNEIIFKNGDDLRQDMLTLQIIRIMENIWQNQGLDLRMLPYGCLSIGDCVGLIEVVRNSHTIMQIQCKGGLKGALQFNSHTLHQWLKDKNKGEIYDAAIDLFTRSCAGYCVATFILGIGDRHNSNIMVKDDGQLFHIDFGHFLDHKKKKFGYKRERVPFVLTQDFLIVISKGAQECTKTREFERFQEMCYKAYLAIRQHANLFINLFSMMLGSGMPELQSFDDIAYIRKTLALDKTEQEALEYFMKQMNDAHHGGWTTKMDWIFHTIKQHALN
property-label: pIC50
// field semantics: pIC50 = negative decimal log of concentration (mol/L)

Take a look at these entries with their results.
Cc1nn(C)cc1-n1c(=O)n(C)c2cnc3ccc(-c4ccc(OCCO)nc4)cc3c21 [Example 107]
7.77
COc1ccc(-c2ccc3ncc4[nH]c(=O)n(-c5cc(C)nn5C)c4c3n2)cc1OC [Example 252]
8.52
CNc1ncc(-c2ccc3ncc4c(c3c2)n(-c2c(C)nn(C)c2C)c(=O)n4C)cc1C(F)(F)F [Example 144.1]
7.44

[ask] Param readout= pIC50; system= PI3K alpha (Homo sapiens, UniProt P42336); entry= CNC(=O)c1cc(-c2ccc3ncc4c(c3c2)n(-c2cn(C(C)C)nc2C)c(=O)n4C)cnc1N [Example 224.2] ; returns value.
[reply] 7.03

[ask] Param readout= pIC50; system= PI3K alpha (Homo sapiens, UniProt P42336); entry= Cc1nn(CC(=O)N2CCC2)cc1-n1c(=O)n(C)c2cnc3ccc(-c4cncc(OC(C)C)c4)cc3c21 [Example 205] ; returns value.
[reply] 8.30

[ask] Param readout= pIC50; system= PI3K alpha (Homo sapiens, UniProt P42336); entry= COc1ncc(-c2ccc3ncc4c(c3c2)n(-c2cn(C)nc2C)c(=O)n4C)cn1 [Example 17.2] ; returns value.
[reply] 7.25

[ask] Param readout= pIC50; system= PI3K alpha (Homo sapiens, UniProt P42336); entry= CCNc1cc(-c2ccc3ncc4c(c3c2)n(-c2cn(C)nc2C)c(=O)n4C)cnc1CO [Example 155.1] ; returns value.
[reply] 7.89

[ask] Param readout= pIC50; system= PI3K alpha (Homo sapiens, UniProt P42336); entry= CCn1nccc1-n1c(=O)n(C)c2cnc3ccc(-c4ccc(OC)c(OC)c4)cc3c21 [Example 1.2] ; returns value.
[reply] 7.30
